target: T1, recombinant human tumor necrosis factor-α (Biosource, USA) (human, UniProt P01375 77-233); test: competitive ELISA (Friguet method), antibody pre-incubated with soluble hTNF-α, plate coated with hTNF-α
T1 construct: also called hTNF-α; TNF-α
T1 sequence (P01375 77-233 limits assumed): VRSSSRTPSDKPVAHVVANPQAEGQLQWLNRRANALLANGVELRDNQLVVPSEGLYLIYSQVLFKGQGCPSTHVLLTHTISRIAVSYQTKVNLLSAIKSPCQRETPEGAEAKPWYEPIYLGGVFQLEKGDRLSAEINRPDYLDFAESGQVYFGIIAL
pKd: −log10 of the molar value.

binder | pKd
humanized antibody YHB1411 (antibody, V domains shown, Human heavy and kappa light constant regions come from pHAB-HC and pHAB-KC) VH: QVQLVQSGPELKKPGASVKVSCKASGYTFTHYGMNWVRQAPGKGLEWMGWINTNTGEPRYDEEFKGRVTMTRDTSASTAYMELSSLRSEDTAVYYCARYDSRGFDCWGQGTTVTVSS VL: QIVMTQSPSSLSASVGERVTITCTASSSISYNYFHWYQQKPGSAPKLWIYSSSNLASGVPSRFSGSGSGTDFTFTISSLQPEDIATYYCHQYERSPWTFGGGTKVEIKR | 9.70
